B1: Pistol ribozyme (parent)
chain: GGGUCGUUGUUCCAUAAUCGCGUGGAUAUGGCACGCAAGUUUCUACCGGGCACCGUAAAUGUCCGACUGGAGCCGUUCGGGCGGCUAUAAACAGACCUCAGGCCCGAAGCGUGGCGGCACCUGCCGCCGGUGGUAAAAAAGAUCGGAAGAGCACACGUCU

Variants of: B1
assay-info: aptazyme ON/OFF ratio, guanine; higher = stronger switching; co-transcriptional cleavage with and without guanine
measure: aptazyme ON/OFF ratio
Enter the number alone.

# input May I ask what aptazyme ON/OFF ratio has been recorded for U7C U8C G9C U11C C12U C13G ?
# output 1.08

# input Then what about the variant U7A U8G U10G U11G C13G ?
# output 1.29

# input Then what about the variant U8C G9U U10G C12G C13G ?
# output 1.21

# input Then what about the variant U7G U8C G9U U10G U11G C12A C13A ?
# output 1.11

# input Then what about the variant U7G G9A U10A U11A C12U C13G ?
# output 1.19

# input Then what about the variant U7C G9U U10G U11A C12U C13A ?
# output 1.19

# input Then what about the variant U7A U8C U11C C12A ?
# output 1.39

# input Then what about the variant U8A G9U U10C U11G ?
# output 1.34

# input Then what about the variant U8A U10G U11C C12A ?
# output 1.49

# input Then what about the variant U7A U8A G9C U10G U11C C12U C13U ?
# output 1.24

# input Then what about the variant U8A G9U U10G U11C C12U C13A ?
# output 1.04

# input Then what about the variant U7C U8A G9C U10A C12A C13U ?
# output 1.21
